Source listed as patent US20250145684A1.

molecular target: T1, HLA-B*08:01 (human); experiment: UV peptide exchange ELISA
T1 construct: MHC monomer first loaded with a UV-sensitive peptide that is cleaved by UV light and exchanged for the test peptide
assayMetric: peptide exchange yield

{"binder": "SVPVRSSPL [SVPVRSSPL (SEQ ID NO: 177)]", "assayMetric": "peptide exchange yield", "measuredResult": "20 to 50%"}
{"binder": "MAPLKMLAL [MAPLKMLAL (SEQ ID NO: 11)]", "assayMetric": "peptide exchange yield", "measuredResult": "50 to 75%"}
{"binder": "LAVPIFVAL [LAVPIFVAL (SEQ ID NO: 180)]", "assayMetric": "peptide exchange yield", "measuredResult": "20 to 50%"}
{"binder": "FPSLFINQF [FPSLFINQF (SEQ ID NO: 213)]", "assayMetric": "peptide exchange yield", "measuredResult": "20 to 50%"}
